The measured values listed here are drawn from patent US12011444B2.

# Test System: UniProt:P35408
# Sequence (P35408 whole entry, looked up): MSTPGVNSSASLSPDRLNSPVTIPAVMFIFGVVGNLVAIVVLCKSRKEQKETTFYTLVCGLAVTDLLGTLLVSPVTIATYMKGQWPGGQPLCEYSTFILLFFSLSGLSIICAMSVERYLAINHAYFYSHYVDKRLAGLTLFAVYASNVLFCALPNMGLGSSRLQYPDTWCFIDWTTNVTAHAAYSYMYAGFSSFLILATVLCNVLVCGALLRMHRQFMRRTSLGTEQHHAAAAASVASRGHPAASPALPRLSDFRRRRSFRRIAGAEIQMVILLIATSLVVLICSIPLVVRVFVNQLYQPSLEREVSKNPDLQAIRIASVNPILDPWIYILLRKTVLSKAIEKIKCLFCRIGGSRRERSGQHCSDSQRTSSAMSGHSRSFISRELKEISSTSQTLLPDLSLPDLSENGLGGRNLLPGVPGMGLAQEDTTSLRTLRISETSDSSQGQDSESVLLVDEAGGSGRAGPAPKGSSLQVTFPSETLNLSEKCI
# Experimental Details: hEP4 b-arrestin assay (PathHunter HEK 293 PTGER4 b-arrestin cells)
# Assay type: cell-based
# Protocol Conditions: hEP4 b-arrestin assay (values without asterisk)
Quantity: log10 IC50 (log10 of the value in nM)
The base-10 logarithm of IC50, taken with IC50 in nM, is what appears here.

# example entries with known answers
{"columns": ["Compound", "Recorded Result"],
 "data": [
  ["COc1ccc(F)c2c1cc(C#N)n2CCNc1cc(-c2ccc(C(F)(F)C(=O)O)cc2)ncn1", 2.25],
  ["CCOc1cc(-c2cc(NCCn3c(C#N)cc4c(OC)ccc(F)c43)ncn2)sc1CC(=O)O", 2.29],
  ["COc1ccc(F)c2c1cc(C#N)n2CCNc1cc(-c2cc3ccccc3[nH]2)ncn1", 1.53],
  ["CCOc1cc(-c2cc(NCCn3c(C#N)cc4c(OC)ccc(F)c43)ncn2)sc1C(=O)NS(=O)(=O)C(C)C", 0.85],
  ["COc1ccc(F)c2c1cc(C#N)n2CCNc1cc(-c2cccc(CC(=O)O)c2)ncn1", 2.16]
]}

Input CCCOc1cc(-c2cc(NCCn3c(C#N)cc4c(OC)ccc(F)c43)ncn2)cc(F)c1C(=O)O . Output log10 IC50: 1.52

Input COc1ccc(F)c2c1c(F)c(C)n2CCNc1cc(-c2cc(C(F)(F)F)c(C(=O)O)s2)ncn1 . Output log10 IC50: 1.28

Input COc1ccc(F)c2c1cc(C#N)n2CCNc1cc(-c2cccc3[nH]ccc23)ncn1 . Output log10 IC50: 1.40

Input CCOc1cc(-c2cc(NCCn3c(C#N)cc4c(OC)ccc(F)c43)ncn2)ccc1C(=O)O . Output log10 IC50: 1.74

Input COc1ccc(F)c2c1cc(C#N)n2CCNc1cc(-c2ccc3c(=O)[nH]n(C)c3c2)ncn1 . Output log10 IC50: 0.95

Input CCNc1csc(-c2cc(NCCn3c(C)cc4c(OC)ccc(F)c43)ncn2)c1 . Output log10 IC50: 1.83

Input N#Cc1cc2cccc(F)c2n1CCNc1cc(-c2cc(F)c(C(=O)O)s2)ncn1 . Output log10 IC50: 1.88

Input COc1ccc(F)c2c1cc(C#N)n2CCNc1cc(-c2ccc(C(=O)O)cc2)ncn1 . Output log10 IC50: 1.92

Input CCOc1cc(-c2cc(NCCn3c(C#N)cc4c(OC)ccc(F)c43)ncn2)sc1C(=O)OCc1oc(=O)oc1C . Output log10 IC50: 0.48
